# systemTested: NADPH oxidase 5 (Homo sapiens)
# measurementDescription: NOX5-dependent H2O2 signal modulators, primary screen, NOX inhibitor project, cell-based, HEK293-NOX5, Amplex Red fluorescence (AID 1161)
# experimentalSetup: HEK293-NOX5, ionomycin, 45 min, higher = more signal
Field: z-score. Provide a value for each of the compounds that follow.
Just the number, please, no unit attached.

CC(C)(C)N1C(=O)[C@H]2[C@H]3[C@H](O)[C@H](O)CC(=NOCc4ccccc4)[C@H]3CC[C@H]2C1=O has a reported z-score of 0.765

Briefly, z-score measured for COC(=O)CC=C[C@@H](C)[C@@H](C=NOCC[C@@H]1C=C[C@H](OC(C)=O)[C@@H](COC(C)=O)O1)OC : 0.855

Reported z-score ( C=CC1=C[C@H](O)[C@@H]2O[C@@H]2C12OCCCO2 ) = 0.629

Entry CON=C[C@@H](NS(=O)(=O)c1ccc(C)cc1)[C@H](C)C=CCC(=O)OC — recorded z-score = -0.415

The reported measurements were obtained from PubChem BioAssay.
